B1: TMEM192 (parent)
chain: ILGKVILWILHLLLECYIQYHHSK

Variants of: B1
EXPERIMENT: protein stability index of a GFP-peptide fusion (GPS, HEK-293T) (PSI 1-6); higher = more stable;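 further: lentivirally expressed fusions sorted by FACS into six bins by GFP to DsRed ratio, PSI derived from sequencing read proportions per bin multiplied by bin number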
CONDITION: c terminus: a fixed tail appended
Tick TRUE if protein stability index is 3 or greater. Tick FALSE if protein stability index is less than 3.

CONSTRUCT SEQUENCE | ANSWER LABEL
QLGKVILWILHLLLECYIQYHHSK [I1Q] | FALSE
ILIKVILWILHLLLECYIQYHHSK [G3I] | FALSE
ILGKVILWILHLLLECYIQYHHSR [K24R] | TRUE
IQGKVILWILHLLLECYIQYHHSK [L2Q] | FALSE
ILGKVILWQLHLLLECYIQYHHSK [I9Q] | FALSE
ILGKVIKWILHLLLECYIQYHHSK [L7K] | FALSE
VLGKVILWILHLLLECYIQYHHSK [I1V] | TRUE
ILGKVILWILHSLLECYIQYHHSK [L12S] | TRUE
ILGKVILWILHLLLQCYIQYHHSK [E15Q] | TRUE
ILGKVILWILHLLLECYPQYHHSK [I18P] | FALSE
ILGKVILWILHLLLECIIQYHHSK [Y17I] | TRUE
ILGKIILWILHLLLECYIQYHHSK [V5I] | TRUE
ILGKVILWILHLLLECYIQYHHAK [S23A] | FALSE
ILGKVILWHLHLLLECYIQYHHSK [I9H] | TRUE
ILGKVILWILHLLLEGYIQYHHSK [C16G] | TRUE
ILGKVELWILHLLLECYIQYHHSK [I6E] | FALSE
ILGKVILWILHLQLECYIQYHHSK [L13Q] | FALSE
ILGKVILWILHLLLECFIQYHHSK [Y17F] | TRUE
ILGKVILWILHLNLECYIQYHHSK [L13N] | TRUE
IWGKVILWILHLLLECYIQYHHSK [L2W] | FALSE
ILGKVIPWILHLLLECYIQYHHSK [L7P] | FALSE
ILGKVILWILHLLLECYRQYHHSK [I18R] | FALSE
ILGKVILWILHLLLEEYIQYHHSK [C16E] | FALSE
ILGKVILWILHLLLECTIQYHHSK [Y17T] | FALSE
ILGKVILWILHLLLECHIQYHHSK [Y17H] | TRUE
ILGKVILWILHLLLPCYIQYHHSK [E15P] | TRUE
ILGKVILWILKLLLECYIQYHHSK [H11K] | TRUE
ILGKVILWILYLLLECYIQYHHSK [H11Y] | FALSE
ILGKVILWILHLLKECYIQYHHSK [L14K] | FALSE
ILGKVILWILHLLLECYIQYHHSC [K24C] | FALSE
ILGKVILWILHLLLECYDQYHHSK [I18D] | FALSE
ILGKVILWILHLLLECYIQYHHSD [K24D] | FALSE
ILGKVILWILHWLLECYIQYHHSK [L12W] | TRUE
ILGKVILWILHLLVECYIQYHHSK [L14V] | TRUE
ILGKVILWILHLLLECYIQWHHSK [Y20W] | FALSE
ILGKVILWILHLLLECYLQYHHSK [I18L] | TRUE
KLGKVILWILHLLLECYIQYHHSK [I1K] | FALSE
ILGKPILWILHLLLECYIQYHHSK [V5P] | FALSE
ILGIVILWILHLLLECYIQYHHSK [K4I] | FALSE
ILGKVILWILHLLLECLIQYHHSK [Y17L] | FALSE
ILGKVILWILHLLLECYIQYHFSK [H22F] | FALSE
ILCKVILWILHLLLECYIQYHHSK [G3C] | TRUE
ILGKVILWIRHLLLECYIQYHHSK [L10R] | FALSE
ILGKVILWILHLLNECYIQYHHSK [L14N] | TRUE
ILGKKILWILHLLLECYIQYHHSK [V5K] | FALSE
ILGKVILWILHLLPECYIQYHHSK [L14P] | TRUE
ILGKVILWILHLLLECYIQYHPSK [H22P] | FALSE
ILNKVILWILHLLLECYIQYHHSK [G3N] | FALSE
ILGKVILQILHLLLECYIQYHHSK [W8Q] | FALSE
ILGKVILWILHLLLECYIQSHHSK [Y20S] | TRUE
ILGKVIGWILHLLLECYIQYHHSK [L7G] | TRUE
ILGKVILWILHLLLECYIQYHHGK [S23G] | TRUE
ILGKVILWILHLLLECYIQYHHQK [S23Q] | FALSE
ILGKVILWILHLLLECYIIYHHSK [Q19I] | FALSE
ILGKVILWILHLPLECYIQYHHSK [L13P] | TRUE
ILGKVILWILHLHLECYIQYHHSK [L13H] | FALSE
ILGKVILWILHLGLECYIQYHHSK [L13G] | FALSE
ILGKVILWTLHLLLECYIQYHHSK [I9T] | TRUE
ILGKVILWILHLLLECYIQFHHSK [Y20F] | FALSE
IRGKVILWILHLLLECYIQYHHSK [L2R] | FALSE
ILGKVILNILHLLLECYIQYHHSK [W8N] | TRUE
ILGKVILWILHLLLECYIQYFHSK [H21F] | TRUE
CLGKVILWILHLLLECYIQYHHSK [I1C] | FALSE
ILTKVILWILHLLLECYIQYHHSK [G3T] | TRUE
WLGKVILWILHLLLECYIQYHHSK [I1W] | FALSE
ILGKVILWIDHLLLECYIQYHHSK [L10D] | FALSE
ILGKVILWILHLLAECYIQYHHSK [L14A] | FALSE
ILGKVILWILHLKLECYIQYHHSK [L13K] | FALSE
ILSKVILWILHLLLECYIQYHHSK [G3S] | FALSE
ILGKVILWILHLLLVCYIQYHHSK [E15V] | TRUE
ILGKVILWILHLLFECYIQYHHSK [L14F] | FALSE
ILGKVILWILHLLLMCYIQYHHSK [E15M] | FALSE
ILGKVILWILHLLLECWIQYHHSK [Y17W] | TRUE
ILGKVILWILHLLLECYIQYHDSK [H22D] | TRUE
ILGKVILWILHVLLECYIQYHHSK [L12V] | FALSE
ILGKVILWILHLLLECYIQVHHSK [Y20V] | TRUE
ILGKVILWILVLLLECYIQYHHSK [H11V] | TRUE
ILMKVILWILHLLLECYIQYHHSK [G3M] | FALSE
ILGKVILWILHLLLECYIQYHESK [H22E] | FALSE
ILGFVILWILHLLLECYIQYHHSK [K4F] | TRUE
ILGKVILWILHELLECYIQYHHSK [L12E] | TRUE
ILGKVILKILHLLLECYIQYHHSK [W8K] | FALSE
ILGKVILTILHLLLECYIQYHHSK [W8T] | TRUE
ILGKVILWILQLLLECYIQYHHSK [H11Q] | FALSE
